Hello, the source for this data is paper PMC8658989, in case you need it.

# Inhibition zones size, Candida albicans 74 values compiled below
- System: Candida albicans 74
- assay.info: Antimicrobial assay, agar/disc diffusion, C. albicans
- Assay type: cell-based
- assay.context: 6 μL of 20 μM solution on 6 mm paper disc, 24 h
property.label: Inhibition zones size, Candida albicans 74 (mm)

[[record]]
chem_smiles = "CC(C)C[C@H](NC(=O)[C@H](CCCCN)NC(=O)CN1C(=O)c2cccc3cccc(c23)C1=O)C(=O)N[C@@H](C)C(=O)N[C@@H](CCCCN)C(=O)N[C@@H](CC(C)C)C(=O)N[C@@H](C)C(=O)N[C@@H](CCCCN)C(=O)N[C@@H](CCCCN)C(=O)N[C@@H](CC(C)C)C(=O)N[C@@H](C)C(=O)N[C@@H](CCCCN)C(=O)N[C@@H](CC(C)C)C(=O)N[C@@H](C)C(=O)N[C@@H](CCCCN)C(N)=O"
assayed_target = "Candida albicans 74"
unit_info = "mm"
reported_value = 20.66

[[record]]
chem_smiles = "CC(C)C[C@H](NC(=O)[C@H](CCCCN)NC(=O)/C=C/c1ccc(O)c(O)c1)C(=O)N[C@@H](C)C(=O)N[C@@H](CCCCN)C(=O)N[C@@H](CC(C)C)C(=O)N[C@@H](C)C(=O)N[C@@H](CCCCN)C(=O)N[C@@H](CCCCN)C(=O)N[C@@H](CC(C)C)C(=O)N[C@@H](C)C(=O)N[C@@H](CCCCN)C(=O)N[C@@H](CC(C)C)C(=O)N[C@@H](C)C(=O)N[C@@H](CCCCN)C(N)=O"
assayed_target = "Candida albicans 74"
unit_info = "mm"
reported_value = 17.66

